Can you tell me normalised response for the items I'm about to list?
- System: BT-549
- assay.name: normalised response (% of control), CellTiter-Glo; higher = more viable cells (100 = DMSO, 0 = benzethonium chloride kill control)
- details: incubation time: 72 h

Give the measured normalised response of COC1=C2C[C@@H](C)C[C@H](OC)[C@H](O)[C@@H](C)/C=C(\C)[C@H](OC(N)=O)[C@@H](OC)/C=C\C=C(/C)C(=O)NC(=CC1=O)C2=O [Geldanamycin] (1 nM) .
101%

Given O=C(c1ccc(OCCN2CCCCC2)cc1)c1c(-c2ccc(O)cc2)sc2cc(O)ccc12 [Raloxifene] (1000 nM) , state its recorded normalised response.
102%

Find the recorded normalised response belonging to COC1=C2C[C@@H](C)C[C@H](OC)[C@H](O)[C@@H](C)/C=C(\C)[C@H](OC(N)=O)[C@@H](OC)/C=C\C=C(/C)C(=O)NC(=CC1=O)C2=O [Geldanamycin] (10 nM) and report it.
97.3%

Please give the measured normalised response for this compound: COC(=O)C[C@](O)(CCCC(C)(C)O)C(=O)O[C@@H]1C(OC)=C[C@]23CCCN2CCc2cc4c(cc2[C@H]13)OCO4 [Omacetaxine] (10 nM)
104%

# normalised response lookup, item FC(F)c1nc2ccccc2n1-c1nc(N2CCOCC2)nc(N2CCOCC2)n1 [ZSTK474] (1000 nM)
42.4%

Reported normalised response, compound C[C@@H]1C=C2C(=O)O[C@@H]3CC[C@H](C1)[C@]23O [Galiellalactone] (50 nM) : ____
98.9%

----------
- Test system: MDA-MB-231
- assay.name: normalised response (% of control), CellTox Green; higher = less cell death (100 = DMSO, 0 = benzethonium chloride kill control)
- details: incubation time: 72 h
Entry flag: 1 if normalised response reaches 60%; 0 if it does not.

Does the compound Nc1nccc(-c2c(-c3ccc(F)cc3)ncn2C2CCCCC2)n1 (1000 nM) have recorded normalised response that is 60% or more?
1

API: above_or_equal(metric=normalised response, cutoff=60%) for item CN(c1ccccc1CNc1nc(Nc2ccc3c(c2)CC(=O)N3)ncc1C(F)(F)F)S(C)(=O)=O (10000 nM)
0

Test whether the compound CCCC(CCC)C(=O)O [Valproic acid] (1000000 nM) records normalised response of 60% or higher.
1

Is the recorded value of normalised response equal to or greater than 60% for this compound? O=c1[nH]cc(F)c(=O)[nH]1 [Fluorouracil] (1000 nM)
1

Entry COc1cccc2c1C(=O)c1c(O)c3c(c(O)c1C2=O)C[C@@](O)(C(C)=O)C[C@@H]3O[C@H]1C[C@H](N)[C@H](O)[C@H](C)O1 [Daunorubicin] (100 nM) : is its normalised response no less than 60%?
1

Is it the case that CCOc1cc2ncc(C#N)c(Nc3ccc(OCc4ccccn4)c(Cl)c3)c2cc1NC(=O)/C=C/CN(C)C [Neratinib] (1000 nM) has normalised response reaching or exceeding 60%?
0

Check if normalised response >= 60% (inclusive). Item: Cn1cnc2c(F)c(Nc3ccc(Br)cc3F)c(C(=O)NOCCO)cc21 [MEK-162] (100 nM)
0

Say whether C#Cc1cccc(Nc2ncnc3cc(OC)c(OCCCCCCC(=O)NO)cc23)c1 [CUDC-101] (1000 nM) shows normalised response of 60% or more.
0

Identify whether the reported normalised response of the following compound is 60% or greater: CC(C)(C)c1cc(NC(=O)Nc2ccc(-c3cn4c(n3)sc3cc(OCCN5CCOCC5)ccc34)cc2)no1 [Quizartinib] (100 nM)
1

Decide: normalised response of C[C@@H]1C=C2C(=O)O[C@@H]3CC[C@H](C1)[C@]23O [Galiellalactone] (50000 nM) >= 60%?
1

Please tell me: is the compound CN(c1ccccc1CNc1nc(Nc2ccc3c(c2)CC(=O)N3)ncc1C(F)(F)F)S(C)(=O)=O (100 nM) at or over 60% in terms of normalised response?
1

Does Cc1cc(C(C)Nc2ccccc2)c2nc(N3CCOCC3)cc(=O)n2c1 (configuration not stated) [TGX-221] (1000 nM) have a reported normalised response of at least 60%?
1

Decide: normalised response of CCS(=O)(=O)c1cccc(-c2cc(C(=O)NC3CCN(C)CC3)c(C)c3[nH]c4ncc(C)cc4c23)c1 [TAK-901] (10 nM) >= 60%?
1

Hi, just wondering whether CCOc1cc2ncc(C#N)c(Nc3ccc(OCc4ccccn4)c(Cl)c3)c2cc1NC(=O)/C=C/CN(C)C [Neratinib] (100 nM) shows normalised response of 60% or higher.
1

Check if normalised response >= 60% (inclusive). Item: COc1cc(Nc2ncc(F)c(Nc3ccc4c(n3)NC(=O)C(C)(C)O4)n2)cc(OC)c1OC [Tamatinib] (1000 nM)
1

Could you verify whether the entry C[C@@]1(C(=O)Nc2ccc(F)nc2)CCCN1c1nc(Nc2cc(C3CC3)n[nH]2)c2cccn2n1 (10000 nM) shows normalised response of no less than 60%?
0

Tell me whether normalised response is at least 60% here: CC(C)C[C@H](NC(=O)[C@H](Cc1ccccc1)NC(=O)c1cnccn1)B(O)O [Bortezomib] (1000 nM)
0

Test whether the compound COc1c(C)cnc(Cn2cnc3c(Cl)nc(N)nc32)c1C [BIIB021] (100 nM) records normalised response of 60% or higher.
1

Is normalised response for C#Cc1cccc(Nc2ncnc3cc(OC)c(OCCCCCCC(=O)NO)cc23)c1 [CUDC-101] (10000 nM) at or above 60%?
0

Assess whether reported normalised response for CC(=O)O[C@H]1C(=O)[C@@]2(C)[C@H]([C@H](OC(=O)c3ccccc3)[C@]3(O)C[C@H](OC(=O)[C@H](O)[C@@H](NC(=O)c4ccccc4)c4ccccc4)C(C)=C1C3(C)C)[C@]1(OC(C)=O)CO[C@@H]1C[C@@H]2O [Paclitaxel] (100 nM) sits at 60% or higher.
0

Given Cn1c(=O)c(F)c(Nc2ccc(I)cc2F)c2c(=O)n(C[C@@H](O)CO)cnc21 [TAK-733] (100 nM) , state whether its normalised response is at least 60%.
1

Check the entry FC(F)c1nc2ccccc2n1-c1nc(N2CCOCC2)nc(N2CCOCC2)n1 [ZSTK474] (10000 nM) : does normalised response equal or exceed 60%?
1

Does the compound FC(F)c1nc2ccccc2n1-c1nc(N2CCOCC2)nc(N2CCOCC2)n1 [ZSTK474] (100 nM) have recorded normalised response that is 60% or more?
1

Is reported normalised response greater than or equal to 60% here: O=C(c1ccc(OCCN2CCCCC2)cc1)c1c(-c2ccc(O)cc2)sc2cc(O)ccc12 [Raloxifene] (10000 nM)
1

Has C[C@@H]1C=C2C(=O)O[C@@H]3CC[C@H](C1)[C@]23O [Galiellalactone] (500 nM) a recorded normalised response greater than or equal to 60%?
1

Tell me whether normalised response is at least 60% here: CS(=O)(=O)OCCCCOS(C)(=O)=O [Busulfan] (100000 nM)
1

Tell me whether normalised response is at least 60% here: COc1ncc(-c2ccc3nccc(-c4ccnnc4)c3c2)cc1NS(=O)(=O)c1ccc(F)cc1F (100 nM)
1

----------
Please respond with reported normalised response for every item in the list.
- Test system: CAL-148
- assay.name: normalised response (% of control), CellTiter-Glo; higher = more viable cells (100 = DMSO, 0 = benzethonium chloride kill control)
- details: incubation time: 72 h

Kindly state the measured normalised response obtained for Cc1cc(C(C)Nc2ccccc2)c2nc(N3CCOCC3)cc(=O)n2c1 (stereo not drawn) [TGX-221] (100 nM) with CAL-148.
100%

Query normalised response on CAL-148 for O=c1[nH]cc(F)c(=O)[nH]1 [Fluorouracil] (100 nM)
111%

Query for CAL-148: what normalised response does the record show for CC(C)(C)c1cc(NC(=O)Nc2ccc(-c3cn4c(n3)sc3cc(OCCN5CCOCC5)ccc34)cc2)no1 [Quizartinib] (10 nM) ?
103%

Request - read-out normalised response | tested on CAL-148 | compound CN1CCN(c2ccc3nc(-c4c(N)c5c(F)cccc5[nH]c4=O)[nH]c3c2)CC1 [Dovitinib] (100 nM)
99.7%

What reported normalised response corresponds to CC(C)C[C@H](NC(=O)[C@H](Cc1ccccc1)NC(=O)c1cnccn1)B(O)O [Bortezomib] (10 nM) on CAL-148?
98.8%

Quick check: normalised response on CAL-148, item CS(=O)(=O)CCNCc1ccc(-c2ccc3ncnc(Nc4ccc(OCc5cccc(F)c5)c(Cl)c4)c3c2)o1 [Lapatinib] (10 nM) ?
112%

Item: FC(F)c1nc2ccccc2n1-c1nc(N2CCOCC2)nc(N2CCOCC2)n1 [ZSTK474] (100 nM) Test system: CAL-148 Read-out: normalised response Value: ?
94.7%

# query: normalised response | item COc1ccc(C2=N[C@@H](c3ccc(Cl)cc3)[C@@H](c3ccc(Cl)cc3)N2C(=O)N2CCNC(=O)C2)c(OC(C)C)c1 [Nutlin-3] (100 nM) | system: CAL-148
115%

The values you see were collected from the supplement of paper PMC4862054.
